# EC50 per record follows
- test_target: human TGR5 (h-TGR5) (Homo sapiens, UniProt Q8TDU6)
- Construct: expressed in transfected cells
- Sequence (Q8TDU6 whole entry): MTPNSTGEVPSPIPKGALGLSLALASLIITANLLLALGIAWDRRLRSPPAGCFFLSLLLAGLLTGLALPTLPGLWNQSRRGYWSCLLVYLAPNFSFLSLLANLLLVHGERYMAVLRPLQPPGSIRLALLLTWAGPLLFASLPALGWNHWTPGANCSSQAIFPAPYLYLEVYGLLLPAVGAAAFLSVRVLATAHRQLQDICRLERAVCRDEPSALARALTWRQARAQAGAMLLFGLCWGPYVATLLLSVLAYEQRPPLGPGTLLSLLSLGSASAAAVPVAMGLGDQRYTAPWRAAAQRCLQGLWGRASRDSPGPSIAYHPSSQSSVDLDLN
- assay_text: TGR5/CRE-Luciferiase Assay (HEK 293 hTGR5/CRE-Luc cells)
- Format: cell-based
- assay_conditions: h-TGR5 CRE-Luc EC50, Table 1; read-out: CRE-Luc (EC50)

Exercise: Sample CCN(CC)CCOc1ccc(CSc2ncc(C(C)(C)c3ccc(Cl)c(Cl)c3)n2-c2ccc(F)cc2)cc1-c1nnn[nH]1 — what was its EC50?
Key: 100 to 1000 nM

* * *

- test_target: human TGR5 (h-TGR5) (Homo sapiens)
- Construct: expressed in transfected cells
- assay_text: TGR5/CRE-Luciferiase Assay (HEK 293 hTGR5/CRE-Luc cells)
- Assay type: cell-based
- assay_conditions: h-TGR5 CRE-Luc EC50, Table 1; read-out: CRE-Luc (EC50)
Entries and their EC50

1. COc1cc(C(C)(C)c2cnc(SCc3cc(S(N)(=O)=O)c(F)cc3Cl)n2-c2ccc(F)cc2)ccc1Cl
< 100 nM

Exercise: Can you look up EC50 on human TGR5 (h-TGR5) (Homo sapiens) for CC(C)(c1ccc2c(c1)OCO2)c1cnc(SCc2ccc(F)cc2Cl)n1-c1ccc(F)cc1 ?
Key: 100 to 1000 nM

Exercise: Param readout= EC50; system= human TGR5 (h-TGR5) (Homo sapiens); entry= CC(C)(c1ccc(F)cc1)c1cnc(SCc2c(F)cccc2Cl)n1-c1ccc(F)cc1 ; returns value.
Key: 100 to 1000 nM

Exercise: Find EC50 (human TGR5 (h-TGR5) (Homo sapiens)) for the entry COc1cc(C(C)(C)c2c(C)nc(SCc3c(F)cc(C(=O)O)cc3Cl)n2-c2ccc(F)cc2)ccc1Cl
Key: 100 to 1000 nM

* * *

- test_target: human TGR5 (h-TGR5) (Homo sapiens)
- Construct: expressed in transfected cells
- assay_text: TGR5/CRE-Luciferiase Assay (HEK 293 hTGR5/CRE-Luc cells)
- Assay type: cell-based
- assay_conditions: h-TGR5 CRE-Luc EC50, Table 1; read-out: CRE-Luc (EC50)
value_type: EC50

Solved cases below.
1. CC(C)(c1ccc(Cl)c(Cl)c1)c1cnc(SCc2ccc(F)cc2S(N)(=O)=O)n1-c1ccc(F)cc1
100 to 1000 nM
2. CC(C)(C(=O)O)c1ccc(CSc2ncc(C(C)(C)c3ccc(Cl)c(Cl)c3)n2-c2ccc(F)cc2)c(F)c1
100 to 1000 nM
3. CC(C)(c1ccc(Cl)c(Cl)c1)c1cnc(CCc2c(F)cc(C(=O)O)cc2Cl)n1-c1ccc(F)cc1
100 to 1000 nM

Let us move to another entry and its EC50.
Exercise: Name the reported EC50 value associated with the compound COc1ccc(C(C)(C)c2cnc(S(=O)(=O)Cc3c(F)cccc3Cl)n2-c2ccc(F)cc2)cc1OC
Key: < 100 nM

* * *

- test_target: human TGR5 (h-TGR5) (Homo sapiens, UniProt Q8TDU6)
- Construct: expressed in transfected cells
- assay_text: TGR5/CRE-Luciferiase Assay (HEK 293 hTGR5/CRE-Luc cells)
- Format: cell-based
- assay_conditions: h-TGR5 CRE-Luc EC50, Table 1; read-out: CRE-Luc (EC50)
pEC50: −log10 of the molar value.
value_type: pEC50

Example results:
1. COc1ccc(C(C)(C)c2cnc(SCc3ccc(F)cc3Cl)n2-c2ccc(F)cc2)cc1OC
> 7.00
2. COc1cc(C(C)(C)c2cnc(SCc3c(F)cc(C(=O)O)cc3F)n2-c2ccc(F)cc2)ccc1Cl
> 7.00
3. CC(C)(c1ccc(Cl)c(Cl)c1)c1cnc(SCc2c(Cl)cccc2Cl)n1-c1ccc(F)cc1
6.00 to 7.00

Attention now shifts to the item below.
Exercise: I have this molecule here, CC(C)(c1ccc(Cl)c(Cl)c1)c1cnc(S(=O)(=O)Cc2ccc(F)c(Cl)c2)n1-c1ccc(F)cc1 , and I need its recorded pEC50.
Key: 6.00 to 7.00

FYI, the data here is from patent US8785488B2.
